Test system: MDA-MB-468 breast
testMethodNotes: NCI tumour cell line growth inhibition, 48 h
property: TGI

{"compound": "Cc1ccc(Cl)cc1-c1nc(N)nc(Nc2ccc(Br)cc2)n1", "measuredOn": "MDA-MB-468 breast", "reported": "0.614 µM"}
{"compound": "ClCCn1cnc2c(SCc3ccccc3Cl)ncnc21", "measuredOn": "MDA-MB-468 breast", "reported": "67.6 µM"}
{"compound": "O=c1ccc2nc(C(F)(F)F)nn(-c3ccccc3)c-2c1", "measuredOn": "MDA-MB-468 breast", "reported": "2.98 µM"}
{"compound": "C(=C1c2ccccc2-c2ccccc21)c1ccncc1", "measuredOn": "MDA-MB-468 breast", "reported": "6.64 µM"}
{"compound": "CC1(C)CC[C@]2(C(N)=O)CC[C@]3(C)C(=CC[C@@H]4[C@@]5(C)C/C(=C/c6cccnc6)C(=O)C(C)(C)[C@@H]5CC[C@]43C)[C@@H]2C1", "measuredOn": "MDA-MB-468 breast", "reported": "> 100 µM"}
{"compound": "CC1=C(COCCOC(=O)c2ccc(S(=O)(=O)F)cc2)C2=C(C)C3(CC3)[C@@](C)(O)C(=O)C2=C1", "measuredOn": "MDA-MB-468 breast", "reported": "40.1 µM"}
{"compound": "O=C(Nc1ccc(I)cc1F)c1cc(-c2ccc(F)cc2F)ccc1O", "measuredOn": "MDA-MB-468 breast", "reported": "5.76 µM"}
{"compound": "CCCC(=O)NC(c1ccc(N(CC)CC)cc1)c1cc(C)c2cccnc2c1O (centres undefined)", "measuredOn": "MDA-MB-468 breast", "reported": "1.96 µM"}
{"compound": "Cc1ccc(NC2=N[C@]34CC(=O)CC[C@]3(C)[C@H]3CC[C@]5(C)C(=O)CC[C@H]5[C@@H]3C[C@@H]4S2)c(C)c1", "measuredOn": "MDA-MB-468 breast", "reported": "3.93 µM"}
{"compound": "CC(=O)N1CCC(Nc2cc(C(=O)NC[C@H](O)CN3CCc4ccccc4C3)ncn2)CC1", "measuredOn": "MDA-MB-468 breast", "reported": "> 100 µM"}
{"compound": "N#CC1=C(N)Oc2c(ccc3ccccc23)C1c1cccs1 (centres undefined)", "measuredOn": "MDA-MB-468 breast", "reported": "13.7 µM"}
{"compound": "CN(C)CCCNCc1ccc(-c2ccc(F)c(Cl)c2)o1", "measuredOn": "MDA-MB-468 breast", "reported": "23.4 µM"}
{"compound": "C=C1C(=O)O[C@H]2[C@H]1CC/C(COC(=O)/C=C\\C(=O)NCc1ccc(Cn3c(=O)sn(CCCI)c3=O)cc1)=C\\CC[C@@]1(C)O[C@@H]21", "measuredOn": "MDA-MB-468 breast", "reported": "1.19 µM"}
{"compound": "COc1ccc2c(c1)NC(=O)CN2c1nc(NC2CC2)nc2ccccc12", "measuredOn": "MDA-MB-468 breast", "reported": "3.75 µM"}
